System: 171881-019-R-J1-PDC complex spheroid viability
Assay: Anticancer human tumor 171881-019-R-J1-PDC patient-derived invasive breast carcinoma cell line growth inhibition; active means viability on the fitted dose curve at most 10% of control; inactive means the rest
Conditions: second compound 3.16 µM; first compound 0.949 µM
Entry note: the call must match one of 1 (active), -1 (inactive)

These recorded examples may help you get a feel for the data.
Nc1ccccc1NC(=O)c1ccc(CNC(=O)OCc2cccnc2)cc1 + NC1CC1c1ccc(-c2cccc(O)c2)cc1 | 1
COc1cc(C2c3cc4c(cc3C(OC3OC5COC(C)OC5C(O)C3O)C3COC(=O)C23)OCO4)cc(OC)c1O (stereo unspecified) + NC1CC1c1ccc(-c2cccc(O)c2)cc1 | -1
O=C(C=Cc1cccc(S(=O)(=O)Nc2ccccc2)c1)NO + NC1CCC(NC2CC2c2ccccc2)CC1 | 1
CCN(c1cc(-c2ccc(CN3CCOCC3)cc2)cc(C(=O)NCc2c(C)cc(C)[nH]c2=O)c1C)C1CCOCC1 + NC1CCC(NC2CC2c2ccccc2)CC1 | -1

Could you please tell me the result logged for CCN(c1cc(-c2ccc(CN3CCOCC3)cc2)cc(C(=O)NCc2c(C)cc(C)[nH]c2=O)c1C)C1CCOCC1 + NC1CC1c1ccc(-c2cccc(O)c2)cc1 in this assay?
-1

Param item: NS(=O)(=O)OCC1CC(n2ccc3c(NC4CCc5ccccc54)ncnc32)CC1O (stereo unspecified) + NC1CCC(NC2CC2c2ccccc2)CC1
-1

---

Test system: 171881-019-R-J1-PDC complex spheroid viability
Test: Anticancer human tumor 171881-019-R-J1-PDC cell line growth inhibition; active means viability on the fitted dose curve at most 10% of control; inactive means the rest;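 further: spheroids exposed to agents for 7 days after 3 days growth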
Details: second compound 10 µM; first compound 1 µM
Return exactly one item of y (active), n (inactive)

Previously resolved entries follow.
O=C(c1cc(Cc2n[nH]c(=O)c3ccccc23)ccc1F)N1CCN(C(=O)C2CC2)CC1 + NC1CCC(NC2CC2c2ccccc2)CC1 | n
CC(C)c1c(-c2ccccc2)nc2c(C#N)c[nH]n2c1=O + NC1CC1c1ccc(-c2cccc(O)c2)cc1 | n
CC1COCCN1c1cc(C2(S(C)(=N)=O)CC2)nc(-c2ccnc3[nH]ccc23)n1 (stereo not given) + NC1CC1c1ccc(-c2cccc(O)c2)cc1 | n
CC1(C)CCC(CN2CCN(c3ccc(C(=O)NS(=O)(=O)c4ccc(NCC5CCOCC5)c([N+](=O)[O-])c4)c(Oc4cnc5[nH]ccc5c4)c3)CC2)=C(c2ccc(Cl)cc2)C1 + NC1CC1c1ccc(-c2cccc(O)c2)cc1 | n
COc1cc(Nc2ncc3c(n2)-c2ccc(Cl)cc2C(c2c(F)cccc2OC)=NC3)ccc1C(=O)O + NC1CCC(NC2CC2c2ccccc2)CC1 | n

Please let me know the test result on file for O=C(C=Cn1cnc(-c2cc(C(F)(F)F)cc(C(F)(F)F)c2)n1)NNc1cnccn1 + NC1CCC(NC2CC2c2ccccc2)CC1 .
y

Okay, and Nc1ncn(C2CC(O)C(CO)O2)c(=O)n1 (stereo not given) + NC1CCC(NC2CC2c2ccccc2)CC1 ?
n

---

System: 171881-019-R-J1-PDC complex spheroid viability
Experiment: Anticancer human tumor 171881-019-R-J1-PDC cell line growth inhibition;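 further: spheroids exposed to agents for 7 days after 3 days growth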
Details: second compound 3.16 µM; first compound 1 µM; active compounds read low
Please assign Condition not met whenever viability, T/C is at or above 60%, and Condition met whenever it is below.

Example results:
O=C(c1cc(Cc2n[nH]c(=O)c3ccccc23)ccc1F)N1CCN(C(=O)C2CC2)CC1 + NC1CC1c1ccc(-c2cccc(O)c2)cc1 | Condition not met
O=C(C=Cn1cnc(-c2cc(C(F)(F)F)cc(C(F)(F)F)c2)n1)NNc1cnccn1 + NC1CC1c1ccc(-c2cccc(O)c2)cc1 | Condition met
CC1COCCN1c1cc(-c2ccnn2C)c2ccnc(-c3ccn[nH]3)c2n1 (stereo not drawn) + NC1CCC(NC2CC2c2ccccc2)CC1 | Condition met
Nc1ncn(C2CC(O)C(CO)O2)c(=O)n1 (stereo not drawn) + NC1CC1c1ccc(-c2cccc(O)c2)cc1 | Condition not met

Hello, is viability, T/C of the following molecule strictly smaller than 60%? CC1COCCN1c1cc(-c2ccnn2C)c2ccnc(-c3ccn[nH]3)c2n1 (stereo not drawn) + NC1CC1c1ccc(-c2cccc(O)c2)cc1
Condition met

Try this molecule next: COc1ccc([C@@H](O)c2cc(-c3ncnc4cc(N5CCOCC5)ccc34)c(F)cc2Cl)nn1 + NC1CCC(NC2CC2c2ccccc2)CC1
Condition met
